# Experimental target: Glycogen synthase kinase-3 (Sus scrofa) (UniProt B2LUN4+I6LNT8)
# Test summary: Inhibition of porcine brain GSK-3alpha/beta assessed as residual activity at 1 uM using YRRAAVPPSPSLSRHSSPHQSpEDEEE as substrate in presence of [gamma-33P]ATP relative to control
# Format: tissue-based
# Test context: Sus scrofa domesticus
Provide the reported Activity of each item.
Answer format reminder: number followed by unit.

**Query** Look up Activity of O=[N+]([O-])c1c2ccncc2cc2cnc(-c3ccccc3)nc12 and report it.
**Result** 100%

**Query** Look up Activity of CCN(CC)CCCNc1ncc2cc3cnccc3c([N+](=O)[O-])c2n1 and report it.
**Result** 92%

**Query** Look up Activity of Nc1c2ccncc2cc2cnc(NCCN3CCOCC3)nc12 and report it.
**Result** 76%

**Query** Look up Activity of Nc1c2ccncc2cc2cnc(NCCN3CCCCC3)nc12 and report it.
**Result** 43%

**Query** Look up Activity of Nc1c2ccncc2cc2cnc(NCCN3CCCC3)nc12 and report it.
**Result** 62%

**Query** Look up Activity of Nc1c2ccncc2cc2cnc(NCCCN3CCOCC3)nc12 and report it.
**Result** 41%

Just for reference, ChEMBL document CHEMBL4665625 is where these values come from.
